Below, pKi values reported for Adenosine receptor A1 (Homo sapiens) across several publications.
pKi: −log10 of the molar value.
Would you mind classing the entries by pKi? Ranges: lower (below 6), middle (6 to below 7), upper (7 or more)

1. N#Cc1c(N)nc(SCc2ccn[nH]2)c(C#N)c1-c1ccc(OCC2CC2)cc1    middle
2. Cn1ncc2nc(N)n3nc(-c4ccco4)nc3c21    upper
3. CCNC(=O)[C@H]1OC(n2cnc3c(NC(=O)Nc4ccc(S(=O)(=O)NC56CC7CC(CC(C7)C5)C6)cc4)ncnc32)C(O)C1O (single isomer, unassigned)    middle
4. COc1ccc(-n2nc3c(N)nc4c(N)cccc4n3c2=O)cc1    middle
5. COc1cccc(-n2cc3c(n2)c(=O)[nH]c2ccccc23)c1    upper
6. CC(=O)Nc1cc(N2CCN(C)CC2)nc(-n2nc(C)cc2C)n1    lower
7. CC(C)n1cc2c(Cl)nc(N)nc2n1    lower
8. O=C(Nc1nc(-c2ccccc2)nc2sc(-c3ccco3)nc12)c1ccccc1    lower

Exam item: Sort Cc1cc(Cl)cc2[nH]c(-c3cnc4ccccc4n3)nc12 into one of the categories.
Marked response: upper

Exam item: Now consider CCOC(=O)c1c(NC(=O)c2sc(Nc3ccc(OC)cc3)nc2-c2ccc(C)cc2)sc2c1CCCC2 and answer again.
Marked response: lower

Exam item: Now consider Cc1cc(-c2nc3c([nH]2)C2=NC(C)CN2C(=O)N3Cc2ccccc2)n(C)n1 (racemic) and answer again.
Marked response: lower

Exam item: Now consider CCOC(=O)c1cnc(NCc2ccc(C(F)(F)F)cc2)n2nc(-c3ccco3)nc12 and answer again.
Marked response: lower

Exam item: Now consider N#Cc1c(N)nc(SCC(=O)NO)c(C#N)c1-c1ccc(OCC2CC2)cc1 and answer again.
Marked response: middle

Exam item: Now consider CCn1nnc([C@H]2O[C@@H](n3cnc4c(N)nc(N[C@H](CO)Cc5ccc([N+](=O)[O-])cc5)nc43)[C@H](O)[C@@H]2O)n1 and answer again.
Marked response: lower

Exam item: Now consider CCNc1ncc(C(=O)O)c2nc(-c3ccco3)nn12 and answer again.
Marked response: lower

Exam item: Now consider CCOc1cccc2cc(-c3ccc(OC)cc3)c(=O)oc12 and answer again.
Marked response: lower

Exam item: Now consider CCCn1c(=O)c2[nH]c(-c3cc(C)n(CC(=O)Nc4ccc(Cl)cc4)n3)nc2n(CCC)c1=O and answer again.
Marked response: lower

Exam item: Now consider CC(C)(C)CC(=O)Nc1ccc(C(=O)Nc2ncc(Cl)s2)cc1 and answer again.
Marked response: middle

Exam item: Now consider CC(=O)Nc1cc(N2CCCC2)nc(-n2nc(C)cc2C)n1 and answer again.
Marked response: lower

---

Below, Ki values reported for Adenosine receptor A1 (Homo sapiens, UniProt P30542) across several publications.
Numbers only; they are read as nM.

1) Cc1nc(N)c2nc(-c3ccccc3)sc2n1    34
2) Cc1cccc(-n2cc3c(n2)c(NC(=O)NCc2ccccc2)nc2ccccc23)c1    6800
3) CC(C)Cn1c(=O)c2c(nc3ccccn32)n(Cc2ccccc2)c1=O    28
4) CCCN1C(=O)N2CCN=C2c2[nH]c(-c3ccc(Br)cc3)nc21    1800
5) Nc1nc(C(=O)NCc2cccc3cccnc23)c2cccc(Br)c2n1    10

Exam item: What value of Ki has been recorded for this entry: Cc1ccc(CN2CCC(NC(=O)Nc3nc4nn(C)cc4c4nc(-c5ccco5)nn34)CC2)cc1
Marked response: 1480

Exam item: Now consider O=C(Nc1ccc(Br)c(-c2ccco2)n1)C1CC1 and answer again.
Marked response: 285

Exam item: Now consider NCCOc1ccc(-c2cn3c(=O)n(-c4ccccc4)nc3c(N)n2)cc1 and answer again.
Marked response: 289

Exam item: Now consider Clc1nc(-c2nccs2)c2sccc2n1 and answer again.
Marked response: 615

Exam item: Now consider CC(C)c1nc2c(=O)n(Cc3ccccc3)nc(-c3ccncc3)c2c2cc(-c3ccccc3)nn12 and answer again.
Marked response: 192
